System: RXRa DBDmut IVT, anti-RXR (DBD mutation: RXRa K156A/R161A, NR concentration 90 nM)
experiment description: PBM binding z-score (relative to random genomic background probes); higher = stronger binding; sequences stand for … in GC…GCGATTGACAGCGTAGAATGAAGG
Collected PBM binding z-score values appear next to each entry.
Give the figure only, with no unit attached.

Task: GET /values?readout=PBM binding z-score&item= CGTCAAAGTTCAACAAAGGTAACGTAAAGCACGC
Result: 4.53

***
Task: GET /values?readout=PBM binding z-score&item= CCTCCTGGGCCACGAAAGGTCATTGATTCAGTGA
Result: 0.0691

Task: // returns reported PBM binding z-score for input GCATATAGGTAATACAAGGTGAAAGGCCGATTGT
Result: 0.113

Task: Given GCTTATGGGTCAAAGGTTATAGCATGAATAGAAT , state its recorded PBM binding z-score.
Result: 2.11

Task: Please report the recorded PBM binding z-score for ATATGTAGGTTAGCTGGGGTCATTCTGACTAGGC .
Result: 2.08

Task: Entry under review: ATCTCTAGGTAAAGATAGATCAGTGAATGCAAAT . Reported PBM binding z-score?
Result: -0.154

Task: Query: PBM binding z-score; subject: CAAACTAGGTCCAGGTCAAAGTCGGTTTGTGCCA
Result: 1.62

* * *

Recorded PBM binding z-score values for a group of sequences are listed next.
System: FXR:RXRa (NR concentration 270 nM, RXRa partner concentration 90 nM)
experiment description: PBM binding z-score (relative to random genomic background probes); higher = stronger binding; sequences stand for … in GC…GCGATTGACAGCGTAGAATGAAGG
Hey, just send me the number, nothing else.

Sample records with PBM binding z-score:
Task: Enter reported PBM binding z-score observed with FXR:RXRa (NR concentration 270 nM, RXRa partner concentration 90 nM) for ATCTCTAGGTAACCTAGTTCAGTGAATGCCGAAC
Result: 0.745

Task: Record GCGACTGGGGCATCAGCATGTTACCATAACTTAA : what is its PBM binding z-score with FXR:RXRa (NR concentration 270 nM, RXRa partner concentration 90 nM)?
Result: -0.56

Task: API: value(readout=PBM binding z-score, system=FXR:RXRa (NR concentration 270 nM, RXRa partner concentration 90 nM)) for record AATACAGAGTCACTAGGCCAGAGTAGGTACGAAT
Result: -0.115

Task: Form field - read-out: PBM binding z-score; system: FXR:RXRa (NR concentration 270 nM, RXRa partner concentration 90 nM); submitted item: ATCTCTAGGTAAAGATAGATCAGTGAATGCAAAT
Result: 0.447

Task: Tell me reported PBM binding z-score for ATCGCAAGGTCGAAGGTGAGTATACCCACCCGAA , tested with FXR:RXRa (NR concentration 270 nM, RXRa partner concentration 90 nM).
Result: 1.5

***
Task: What value of PBM binding z-score on FXR:RXRa (NR concentration 270 nM, RXRa partner concentration 90 nM) does CGTCCAAGATCAGCAGGTCAGTGAAAGCGACGTG have?
Result: 0.239

Task: Tell me reported PBM binding z-score for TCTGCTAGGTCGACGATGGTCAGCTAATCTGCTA , tested with FXR:RXRa (NR concentration 270 nM, RXRa partner concentration 90 nM).
Result: -0.0207

* * *

Test system: PPARg:RXRa DBDmut IVT, anti-RXR (DBD mutation: RXRa K156A/R161A, NR concentration 270 nM, RXRa partner concentration 90 nM)
experiment description: PBM binding z-score (relative to random genomic background probes); higher = stronger binding; sequences stand for … in GC…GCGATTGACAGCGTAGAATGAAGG
quantity measured: PBM binding z-score
Write the value as a bare number.

Below: 4 sequences and their reported PBM binding z-score.
Task: Look up PBM binding z-score for this sequence: ATCGAAAAGTCGAGGTGAGTATAGAGAAAGGGAA
Result: -0.205

Task: Could you share which PBM binding z-score value was measured for GCGACTGGGGTATCAGCAGGTTACCATAACTTAA ?
Result: 1.21

Task: For the sequence shown here, CGAACGAGGGCATCAGTTGATAGCAAATGCCGAT , give the reported PBM binding z-score.
Result: 2.85

Task: Would you kindly share the measured PBM binding z-score for CCTATTAGTTGACCATAAGGGCACCCGAAGCTCG ?
Result: -0.198

New cases:
Task: Tell me the measured PBM binding z-score of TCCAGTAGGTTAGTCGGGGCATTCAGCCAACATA , please.
Result: 3.62

Task: Can you share its PBM binding z-score? I mean this sequence: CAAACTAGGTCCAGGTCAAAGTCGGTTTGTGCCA
Result: 3.43

Task: Given the sequence TGAATGAGGTTAAACATCAGGGAACGTGGCGTCG , what is its reported PBM binding z-score?
Result: 2.85

Task: Given the sequence CCGAGTAGGTTATGGGTCATTCAGGCAACGGTGA , what is its reported PBM binding z-score?
Result: 3.95

Task: # query: PBM binding z-score of entry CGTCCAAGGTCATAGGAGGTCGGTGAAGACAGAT
Result: 2.55

Task: Param item = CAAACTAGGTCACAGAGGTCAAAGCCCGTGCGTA ; retrieve measured PBM binding z-score.
Result: 8.71

Task: Reported PBM binding z-score, sequence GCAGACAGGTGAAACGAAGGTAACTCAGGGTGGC : ____
Result: 0.963

Task: Looking for the measured PBM binding z-score of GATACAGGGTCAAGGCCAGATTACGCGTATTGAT , can you help?
Result: 2.74

* * *

Tested on: LXRb homodimer (NR concentration 270 nM)
experiment description: PBM binding z-score (relative to random genomic background probes); higher = stronger binding; sequences stand for … in GC…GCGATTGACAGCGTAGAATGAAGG
quantity measured: PBM binding z-score

Look over these answered cases.
Task: Entry TATTGTAGATCAGCAGGTTAAGAAAGCTGGCCAA has what PBM binding z-score?
Result: -0.105

Task: What measured PBM binding z-score goes with TCTAGCAGGGCAGAGGGTCACTCAAGAGGTACGG ?
Result: -0.996

More entries:
Task: Look at this sequence and give its reported PBM binding z-score. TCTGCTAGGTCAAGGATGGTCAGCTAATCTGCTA
Result: -0.198

Task: Requested field: PBM binding z-score. Item: TCTATTAGTTGAAGGGCAACCGACGAGTCCGTTT
Result: 0.453

Task: What PBM binding z-score value was documented for this sequence, ACAGCCAGGTGAGTGAAGGTAACTCAGCTGGACG ?
Result: -1.03

Task: Give the measured PBM binding z-score of AGTCAAAGTTCACTAGGTAACATAAGATTCAGCT .
Result: 1.4

* * *

System: RARg homodimer (NR concentration 270 nM)
experiment description: PBM binding z-score (relative to random genomic background probes); higher = stronger binding; sequences stand for … in GC…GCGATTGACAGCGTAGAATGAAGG
Listed sequences paired with reported PBM binding z-score
Please reply with the number alone, leaving off any unit.

Task: // lookup PBM binding z-score | system=RARg homodimer (NR concentration 270 nM) | key= GTACCAAGCTGAATAGGTCGTTGATGAGTAGGCG
Result: 0.164

* * *

Tested on: LXRb homodimer (NR concentration 270 nM)
experiment description: PBM binding z-score (relative to random genomic background probes); higher = stronger binding; sequences stand for … in GC…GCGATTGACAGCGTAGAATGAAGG
Please enter TRUE where PBM binding z-score is greater than or equal to 0.3, and FALSE where it is lower.

Consider the following illustrative entries.
Task: Quick check: does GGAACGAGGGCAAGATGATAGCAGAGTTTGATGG have PBM binding z-score greater than or equal to 0.3?
Result: FALSE

Task: Test whether the sequence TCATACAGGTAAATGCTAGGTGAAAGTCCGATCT records PBM binding z-score of 0.3 or higher.
Result: TRUE

Task: Check this sequence for PBM binding z-score at or above 0.3: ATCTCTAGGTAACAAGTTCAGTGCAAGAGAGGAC
Result: TRUE

Task: Entry TCTCGGAGGACACTAAGGTCAGAGCTTTCCAGAG : is its PBM binding z-score no less than 0.3?
Result: FALSE

Task: Quick check: does GCAGACAGGTGAAACGCACGTAACTCAGGGTGGC have PBM binding z-score greater than or equal to 0.3?
Result: FALSE

Continuing:
Task: Is PBM binding z-score at least 0.3? Consider GCGACTGGGGCAAAGCACGTTACCATAAGGTTGG
Result: FALSE

Task: # check: PBM binding z-score of TCTAGTTGGTCAAACGTCACACACTCGAAATGCG is greater than or equal to 0.3
Result: FALSE

Task: Could you please find out whether CAAACTACGTCACAGAGGTCAAAGTCCGTGCGTA has PBM binding z-score that meets 0.3 or exceeds it?
Result: TRUE

Task: Say whether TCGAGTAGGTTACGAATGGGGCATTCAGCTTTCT shows PBM binding z-score of 0.3 or more.
Result: FALSE

Task: Decide: is the reported value of PBM binding z-score for CCTTACGGGTCACGAGGTTAGAGCACGACGAGCG equal to or greater than 0.3?
Result: FALSE

Task: Please indicate if the recorded PBM binding z-score for TCGAGTAGGTTACCAATGGGGCATTCCGCTTTCT meets or exceeds 0.3.
Result: FALSE

Task: Say whether TCTAGTTGGTCAAAGGTCACTCACTCGAAATGCG shows PBM binding z-score of 0.3 or more.
Result: TRUE

Task: Quick check, PBM binding z-score >= 0.3? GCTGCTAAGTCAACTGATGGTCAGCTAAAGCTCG
Result: FALSE

Task: # check: PBM binding z-score of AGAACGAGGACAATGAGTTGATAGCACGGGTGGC is greater than or equal to 0.3
Result: FALSE

Task: Hello, I need to know if ATCGAAAGGTCGACGAGGTGACTATACACCGTTT has measured PBM binding z-score not below 0.3. Thanks!
Result: FALSE

Task: Quick check: does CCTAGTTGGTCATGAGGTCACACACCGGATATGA have PBM binding z-score greater than or equal to 0.3?
Result: TRUE

Task: Decide: PBM binding z-score of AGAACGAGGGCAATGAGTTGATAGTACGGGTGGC >= 0.3?
Result: FALSE

Task: Decide: PBM binding z-score of TCTTGTAGATCAGCATGTTAAGAAAGCTGGCCAA >= 0.3?
Result: FALSE

Task: Please tell me: is the sequence CGTCCACGGTCAAAGGTCAGTGAAGAGATGACGG at or over 0.3 in terms of PBM binding z-score?
Result: FALSE

Task: Given the entry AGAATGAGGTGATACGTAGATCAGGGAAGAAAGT , answer whether its PBM binding z-score meets or surpasses 0.3.
Result: FALSE

Task: Could you please find out whether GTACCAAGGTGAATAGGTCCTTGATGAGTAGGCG has PBM binding z-score that meets 0.3 or exceeds it?
Result: FALSE

Task: Identify whether the reported PBM binding z-score of the following sequence is 0.3 or greater: AGAATGAGGTTATACGTAGATCACGGAAGAAAGT
Result: FALSE

Task: Determine whether measured PBM binding z-score meets or exceeds 0.3 for TCTTGTTGATCAGCAGGTTAAGAAAGCTGGCCAA
Result: FALSE

Task: I'd appreciate it if you could say whether AGAATGAGGTTACTAAGATCAGGGAATTGCGGTC has PBM binding z-score at least equal to 0.3.
Result: FALSE

Task: Quick check, PBM binding z-score >= 0.3? CGTCAAAGTTCAGCTAAGGTAACGTAAAGCACGC
Result: TRUE

Task: API: above_or_equal(metric=PBM binding z-score, cutoff=0.3) for item TCTATTAGTTCATTAGGGCAACCGAAACAGCGGA
Result: TRUE

Task: Is PBM binding z-score at least 0.3? Consider ATCGAAAGGTCGTGAGGTGAGTCTACAGAAAGGC
Result: TRUE

Task: // inclusive: PBM binding z-score at least 0.3? input: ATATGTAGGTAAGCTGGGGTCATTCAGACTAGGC
Result: TRUE
